These entries and their values trace back to PubChem BioAssay (NCI).

Reported growth inhibition values are given for each entry in this list.
Assay: NCI Yeast Anticancer Drug Screen. Data for the bub3 strain (AID 167)
Settings: S. cerevisiae bub3 mutant strain, at 5.0 µM (retest, dose inferred, filed as 0.5), hits give high values
The panel holds about 79,000 compounds, 15% with a hit somewhere; the sample as a whole holds those more often.
Give the quantity in %, number only.

Solved cases below.
compound=CCOP(=O)(OCC)/C(C#N)=C/c1ccc(-c2ccc(F)cc2F)o1 test_result=26
compound="O=NC1c2cccc3cccc(c23)C1N=O (stereo unspecified)" test_result=-3
compound="C=CC(C)(C)N1C(=O)C(C(C)=O)=C(O)C1Cc1c[nH]c2ccccc12 (stereo unspecified)" test_result=-11
compound=O=C(/N=N/C(=O)Oc1ccccc1)Oc1ccccc1 test_result=50
compound=CC1CCN(CCC(=O)c2ccc([N+](=O)[O-])cc2)CC1 test_result=7

*Q* Return reported growth inhibition; argument: `CN(C)CCCn1c2c3ccccc3ccc2c2oc(=O)c3ccccc3c21`
*A* 12

*Q* Return reported growth inhibition; argument: `O=c1cccccc1[O-].O=c1cccccc1[O-].O=c1cccccc1[O-].[Eu+3]`
*A* 8

*Q* Return reported growth inhibition; argument: O=C1SS(=O)c2ccccc21 (stereo unspecified)
*A* 24

*Q* Return reported growth inhibition; argument: `CC(C)OC(=O)NNc1c(Cl)cc(Cl)cc1Cl`
*A* 36

*Q* Return reported growth inhibition; argument: `CC(C)OP(=O)(OC(C)C)/C(Cl)=N/Nc1ccc([N+](=O)[O-])cc1`
*A* 29

*Q* Return reported growth inhibition; argument: `CN(C)CC(CN(C)C)C(=O)/C=C/c1ccc(Cl)cc1Cl`
*A* -10

----------
Assay: NCI Yeast Anticancer Drug Screen. Data for the mlh1 rad18 strain (AID 175)
Conditions: S. cerevisiae mlh1 rad18 strain growth inhibition; at 50.0 µM (retest, dose inferred, filed as 5.0)
This is part of a sample that, as a whole, favours compounds with a hit. Of some 79,000 tested, about 15% had one in any assay. Calls of active or inactive are those of the source. No stated cut-off is given here; in the data, active means growth inhibition above about 70%; inactive means the rest.
Entry note: the call must match one of true (1) (active), false (0) (inactive)

Study these solved cases before continuing.
compound=CCCCCCC=C(C(=O)OCC)C(=O)OCC class="true (1)"
compound=CN(C)CC(CN(C)C)C(=O)/C=C/c1ccc(Cl)cc1Cl class="true (1)"
compound=CC(C)S(=O)(=O)/C=C\S(=O)(=O)C(C)C class="true (1)"
compound=Nc1cc(Cl)ccc1Nc1ccccc1 class="true (1)"

*Q* Short answer needed: outcome of this test for `Oc1c2c(c(O)c3ccccc13)C1(N=N2)c2ccccc2Oc2ccccc21` ?
*A* true (1)

*Q* Short answer needed: outcome of this test for O=C(O)C1CCCCC1c1c2ccc(=O)cc-2oc2cc(O)ccc12 (centres undefined) ?
*A* true (1)

*Q* Short answer needed: outcome of this test for `CC(C)(CN1CCCCC1)C(=O)/C=C/c1c(Cl)cccc1Cl` ?
*A* true (1)

*Q* Short answer needed: outcome of this test for `CCN(CC)CCNc1ccc(C)c2sc3ccc(O)cc3c(=O)c12` ?
*A* true (1)

*Q* Short answer needed: outcome of this test for `CC1(C2CC2)C(C#N)(C#N)C1(C#N)C#N` ?
*A* true (1)

*Q* Short answer needed: outcome of this test for COc1ccc(C(C)c2cc3c(cc2OC(C)O)OCO3)cc1 (centres undefined) ?
*A* false (0)

*Q* Short answer needed: outcome of this test for `O/N=c1/ccn(O)c2ccccc12` ?
*A* true (1)

*Q* Short answer needed: outcome of this test for `c1ccc2nc3c(nc2c1)sc1ccccc13` ?
*A* false (0)

----------
Assay: NCI Yeast Anticancer Drug Screen. Data for the sgs1 strain (AID 173);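 also: 0% = growth of vehicle-only control cultures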
Conditions: S. cerevisiae sgs1 mutant, at 11.0 µM
Protocol: Growth inhibition of yeast strains with defined genetic alterations is measured as a screen for potential anti-cancer activity. Selected strains with alterations in DNA damage repair or cell cycle control were exposed to compounds and growth inhibition was measured relative to vehicle treated controls. The strain used in this assay is sgs1
This is part of a sample that, as a whole, favours compounds with a hit. Of some 79,000 tested, about 15% had one in any assay. The source made the active and inactive calls. No stated cut-off is given here; in the data, active means growth inhibition above about 70%; inactive means the rest.
Entry note: the call must match one of true for active, false for inactive

Study these solved cases before continuing.
compound=CCCCCCCCCCCCCCN class=false
compound=O=C(O)c1c2ccc(Cl)cc2nc2[nH]c(=O)[nH]c(=O)c12 class=false
compound=COc1ccc(-c2cc(-c3cc(C)cc(Cl)c3O)nc3[nH]c(=S)[nH]c(=S)c23)cc1 class=false
compound=CC(C)NCCCNc1c2ccccc2nc2cccc([N+](=O)[O-])c12 class=true
compound="COc1cc2c(cc1O)[C@H](C)C(c1ccccc1OC)O2 (stereo partly drawn)" class=false
compound=Nc1ccc2cc(Br)ccc2c1Br class=false
compound=CC(C)C(c1ccccc1)c1ccccc1 class=false
compound=Nc1cc(Cl)ccc1Nc1ccccc1 class=false
compound="CCN1CCC(O)(c2ccc(Oc3ccc(Cl)cc3)cc2)C(C(=O)c2ccc(Oc3ccc(Cl)cc3)cc2)C1 (stereo not drawn)" class=false
compound="CC12CCC(CC(=O)/C1=C(/Br)I)C2(C)C (stereo not drawn)" class=false

*Q* Short answer needed: outcome of this test for O=C1SS(=O)c2ccccc21 (stereo not drawn) ?
*A* false

*Q* Short answer needed: outcome of this test for `CCOC(=O)/C(=C\c1cccc(C)c1)C(C)=O` ?
*A* true

*Q* Short answer needed: outcome of this test for `CN(C)CCCn1c2c3ccccc3ccc2c2oc(=O)c3ccccc3c21` ?
*A* false

----------
Experiment: NCI Yeast Anticancer Drug Screen. Data for the rad14 strain (AID 159);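 also: 0% = growth of vehicle-treated control cultures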
Conditions: S. cerevisiae rad14 strain growth inhibition; at 100.0 µM
About 79,000 compounds went through this panel and 15% of them were active in at least one assay; those are over-represented in the sample as a whole. Calls of active or inactive are those of the source. Rule as the data show it: active = growth inhibition above about 70%; inactive = the rest.
Entry note: the call must match one of active, inactive

Study these solved cases before continuing.
molecule=Oc1ccc(N=Nc2ccc(Cl)cc2)cc1 class=active
molecule=N#C/C(=C\NC(=S)Nc1ccc(S(N)(=O)=O)cc1)C(=O)c1ccc2ccccc2c1 class=inactive
molecule=O=S1(=O)CCC2=CC(C(F)(F)F)=CC(C(F)(F)F)=CN21 class=active

*Q* Short answer needed: outcome of this test for C=CC(C)(C)N1C(=O)C(C(C)=O)=C(O)C1Cc1c[nH]c2ccccc12 (stereo not drawn) ?
*A* active

*Q* Short answer needed: outcome of this test for `O=C(NC(N1CCN(c2cc3c(cc2F)c(=O)c(C(=O)O)cn3C2CC2)CC1)(C(F)(F)F)C(F)(F)F)c1ccccc1` ?
*A* inactive

*Q* Short answer needed: outcome of this test for `O=C(NCCNCCNC(=O)c1cc(-c2ccccc2)nc2ccccc12)c1cc(-c2ccccc2)nc2ccccc12` ?
*A* inactive

*Q* Short answer needed: outcome of this test for `CCCN=Cc1cc(Cc2ccc(O)c(C=NCCC)c2)ccc1O` ?
*A* active

*Q* Short answer needed: outcome of this test for `Cc1ccc(Nc2n[nH]c(=S)s2)c(C)c1` ?
*A* active

*Q* Short answer needed: outcome of this test for `CCOc1ccc(N)c(S)c1` ?
*A* active

*Q* Short answer needed: outcome of this test for `Cc1oc2ccccc2c(=O)c1Cn1nnc2ccccc21` ?
*A* inactive

*Q* Short answer needed: outcome of this test for `CCC(C)(C)c1ccc(Oc2ccccc2)c(N)c1` ?
*A* active

----------
Test: NCI Yeast Anticancer Drug Screen. Data for the mlh1 strain (AID 171);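 also: 0% = growth of vehicle-treated control cultures of the same strain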
Conditions: S. cerevisiae mlh1 strain growth inhibition; at 1.2 µM; hits give high values
Compounds without any hit were thinned out: in the full panel of roughly 79,000, 15% have a hit.
Reported growth inhibition values are given for each entry in this list.
Give the quantity in %, number only.

compound=COc1cc(C(=O)C=O)cc(OC)c1OC unit_of_measurement=% test_result=9

*Q* Return reported growth inhibition; argument: COC1/C=C\C=C(/C)C(=O)NC2=CC(=O)C(=O)C(=C2O)CC(C)CC(OC)C(O)C(C)/C=C(\C)C1OC(N)=O (stereo unspecified)
*A* -5

*Q* Return reported growth inhibition; argument: `CCCCCCCC/C=C\CCCCCCCCN`
*A* -16

*Q* Return reported growth inhibition; argument: COc1ccc2c3c1OC(C)C31CC(=O)CCC1CC2 (stereo unspecified)
*A* -6

*Q* Return reported growth inhibition; argument: `Clc1nc(Cl)nc(Nc2cccc3ccccc23)n1`
*A* 27

*Q* Return reported growth inhibition; argument: `CC1=CC(C)(C)SC(SSSC2=NC(C)=CC(C)(C)S2)=N1`
*A* -5

----------
Reported growth inhibition values are given for each entry in this list.
Experiment: NCI Yeast Anticancer Drug Screen. Data for the mec2-1 strain (AID 157)
Details: S. cerevisiae mec2-1 strain, at 50.0 µM (retest, dose inferred, filed as 5.0), hits give high values
Description: Growth inhibition of yeast strains with defined genetic alterations is measured as a screen for potential anti-cancer activity. Selected strains with alterations in DNA damage repair or cell cycle control were exposed to compounds and growth inhibition was measured relative to vehicle treated controls. The strain used in this assay is mec2-1
About 79,000 compounds went through this panel and 15% of them were active in at least one assay; those are over-represented in the sample as a whole. Active and inactive are the calls of the source. No stated cut-off is given here; in the data, active means growth inhibition above about 70%; inactive means the rest.

Solved cases below.
compound=CCN(CC)CCNc1ccc2nc(C)n3c4ccc(O)cc4c(=O)c1c23 test_result="15% (inactive)"
compound=CCCCCCNCCCNc1c2cc(OC)ccc2nc2cccc([N+](=O)[O-])c12 test_result="98% (active)"
compound="COc1ccc2c3c1OC(C)C31CC(=O)CCC1CC2 (configuration not stated)" test_result="2% (inactive)"
compound="CCN1CCC(O)(c2ccc(Oc3ccc(C)cc3)cc2)C(C(=O)c2ccc(Oc3ccc(C)cc3)cc2)C1 (configuration not stated)" test_result="97% (active)"
compound=CCCCCCCCCCCCCCCCCCNC(=S)/N=C/c1c(O)c2ccccc2[nH]c1=O test_result="27% (inactive)"

*Q* Return reported growth inhibition; argument: `CCCCCCCC/C=C\CCCCCCCCN`
*A* 30% (inactive)

*Q* Return reported growth inhibition; argument: `CC(C)S(=O)(=O)/C=C\S(=O)(=O)C(C)C`
*A* 69% (inactive)
